# system-name: Recombinant KAT6A/MOZ (488-778) protein (Homo sapiens (Human))
# Sequence (Q92794 488-778): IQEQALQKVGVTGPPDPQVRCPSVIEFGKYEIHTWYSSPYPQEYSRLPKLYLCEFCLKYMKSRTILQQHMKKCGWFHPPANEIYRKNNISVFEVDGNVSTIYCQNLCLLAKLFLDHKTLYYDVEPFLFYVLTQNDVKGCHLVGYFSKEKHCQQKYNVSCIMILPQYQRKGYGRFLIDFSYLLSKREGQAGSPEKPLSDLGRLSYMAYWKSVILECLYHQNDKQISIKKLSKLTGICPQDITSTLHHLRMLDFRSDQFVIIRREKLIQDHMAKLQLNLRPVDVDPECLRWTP
# test-name: KAT6A AlphaLISA Inhibition Screening Assay
# Format: biochemical
# assay-conditions: read-out: Average Kat6A % inhibition @ 1 μM; 1 μM test compound
measured-metric: inhibition at 1 µM (%)

# compound, inhibition at 1 µM / %
data = [
    ("CCc1ccc(OCC#N)c(S(=O)(=O)Nc2noc3cc(Cn4cc(CNC(=O)OC)cn4)cc(OC)c23)c1 [Syn. Ex. 44]", 97),
    ("CCc1ccc(OCc2nn[nH]n2)c(S(=O)(=O)Nc2noc3cc(Cn4cc(CNC(=O)OC)cn4)cc(OC)c23)c1 [Syn. Ex. 71]", 100),
    ("C#CC(=O)NCc1cnn(Cc2cc(OC)c3c(NS(=O)(=O)c4cc(Cl)c(C)cc4OC)noc3c2)c1 [Syn. Ex. 21]", 100),
    ("COc1cc(C)c(C)cc1S(=O)(=O)Nc1noc2cc(Cn3cc(CNS(C)(=O)=O)cn3)cc(OC)c12 [Syn. Ex. 20]", 100),
    ("C#CC(=O)N1Cc2cn(Cc3cc(OC)c4c(NS(=O)(=O)c5cc(OC)ccc5OC)noc4c3)nc2C1 [Syn. Ex. 5]", 83),
    ("CC#CC(=O)NCc1cnn(Cc2cc(OC)c3c(NS(=O)(=O)c4cc(CC)ccc4OC)noc3c2)c1 [Syn. Ex. 15]", 100),
    ("COC(=O)NCc1cnn(Cc2cc3onc(NS(=O)(=O)c4cc(F)ccc4OC)c3c3c2CCCO3)c1 [Syn. Ex. 124]", 100),
    ("COC(=O)NCc1cnn(Cc2cc(OC)c3c(NS(=O)(=O)c4cc(C(F)F)ccc4OC)noc3c2)c1 [Syn. Ex. 135]", 96),
    ("C=C(F)C(=O)NCc1cnn(Cc2cc(OC)c3c(NS(=O)(=O)c4cc(CC)ccc4OCC(=O)O)noc3c2)c1 [Syn. Ex. 67]", 100),
]

====

# system-name: Recombinant KAT6A/MOZ (488-778) protein (Homo sapiens (Human))
# test-name: KAT6A AlphaLISA Inhibition Screening Assay
# Format: biochemical
# assay-conditions: read-out: Average Kat6A % inhibition @ 10 μM; 10 μM test compound
measured-metric: inhibition at 10 µM (%)

Example cases with answers are listed next.
# compound, inhibition at 10 µM [%]
records = [
    ("CCc1ccc(S(=O)(=O)Nc2noc3cc(Cn4cc(CNC(=O)OC)cn4)c4c(c23)OCCC4)c(OC)c1 [Syn. Ex. 140]", 104),
    ("CCc1ccc(OCCO)c(S(=O)(=O)Nc2noc3cc(Cn4cc(CNC(=O)OC)cn4)cc(OC)c23)c1 [Syn. Ex. 64]", 100),
]

(1) CCc1ccc(OC)c(S(=O)(=O)Nc2noc3cc(Cn4cc(CNC(=O)C#CCO)cn4)cc(OC)c23)c1 [Syn. Ex. 49]
(2) CCc1ccc(OC)c(S(=O)(=O)Nc2noc3cc(Oc4cc(CNC(=O)OC)ccn4)cc(OC)c23)c1 [Syn. Ex. 110]
Could you tell me which of 1 and 2 has the lower inhibition at 10 µM reading? Answer format: the label of the selected item. 2

====

# system-name: Recombinant KAT6A/MOZ (488-778) protein (Homo sapiens (Human))
# test-name: KAT6A AlphaLISA Inhibition Screening Assay
# Type: biochemical
# assay-conditions: read-out: Average Kat6A % inhibition @ 10 μM; 10 μM test compound
measured-metric: inhibition at 10 µM (%)

Example cases with answers are listed next.
# molecule, inhibition at 10 µM / %
records = [
    ("C#CC(=O)NCc1ccc(Oc2cc(OC)c3c(NS(=O)(=O)c4cc(CC)ccc4OC)noc3c2)nc1 [Syn. Ex. 61]", 100),
    ("C=C(F)C(=O)NCc1cnn(Cc2cc(OC)c3c(NS(=O)(=O)c4cc(CC)ccc4OCC(=O)N4CCOCC4)noc3c2)c1 [Syn. Ex. 68]", 100),
    ("C#CC(=O)NCc1cnn(Cc2cc(OC)c3c(NS(=O)(=O)c4cc(C)c(C)cc4OC)noc3c2)c1 [Syn. Ex. 19]", 98),
    ("COc1ccc(C(C)C)cc1S(=O)(=O)Nc1noc2cc(Cn3cc(CNS(C)(=O)=O)cn3)cc(OC)c12 [Syn. Ex. 38]", 99),
    ("CCc1ccc(OC)c(S(=O)(=O)Nc2noc3cc(Cn4cc(CNC(N)=O)cn4)cc(OC)c23)c1 [Syn. Ex. 90]", 100),
]

(P) C=C(F)C(=O)NCc1cnn(Cc2cc(OC)c3c(NS(=O)(=O)c4cc(CC)ccc4OCc4nn[nH]n4)noc3c2)c1 [Syn. Ex. 72]
(Q) C=C(F)C(=O)NCc1ccnc(Oc2cc(OC)c3c(NS(=O)(=O)c4cc(CC)ccc4OC)noc3c2)c1 [Syn. Ex. 111]
Compare the recorded inhibition at 10 µM of P and Q ; state which is larger. Answer format: the label of the selected item. P
(P: 100%, Q: 54%)

Reference source: patent US20250122182A1
